Readings of Coupled exchange IC50 (5 min) for the listed compounds
# system-under-test: GDP-bound KRAS protein (aa 1-169), containing both G12C and C118A amino acid substitutions (Homo sapiens, UniProt P01116, C118A/G12C)
# Sequence (P01116 1-169 isoform P01116-2 G12C/C118A): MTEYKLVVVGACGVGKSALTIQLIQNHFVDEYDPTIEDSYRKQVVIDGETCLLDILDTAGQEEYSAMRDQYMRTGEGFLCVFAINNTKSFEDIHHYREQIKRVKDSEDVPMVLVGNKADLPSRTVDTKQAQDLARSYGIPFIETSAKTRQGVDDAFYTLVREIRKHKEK
# assay-explanation: Coupled nucleotide exchange assay (SOS-mediated, AlphaScreen)
# Format: biochemical
# measurement-parameters: 5 min compound pre-incubation

A selection of reference data follows.
compound	Coupled exchange IC50 (5 min)
C=CC(=O)N1CCN(c2nc(=O)n(-c3c(C)ccnc3C(C)C)c3nc(-c4ccccc4F)c(Cl)cc23)C(C(F)(F)F)C1 (single isomer, unassigned)	0.515 | nda μM
C=CC(=O)N1CCN(c2nc(=O)n(-c3c(CC)cccc3CC)c3nc(N4C[C@@H]5C[C@H]4CO5)c(Cl)cc23)[C@@H](C)C1	84.25 | nda μM

Query string: Give the measured Coupled exchange IC50 (5 min) for `C=CC(=O)N1CCN(c2nc(=O)n(-c3c(C(C)C)n[nH]c3C(C)C)c3nc(-c4ccccc4F)c(Cl)cc23)[C@@H](C)C1`
Result string: 0.108 | nda μM

* * *

# system-under-test: GDP-bound KRAS protein (aa 1-169), containing both G12C and C118A amino acid substitutions (Homo sapiens, UniProt P01116, C118A/G12C)
# assay-explanation: Coupled nucleotide exchange assay (SOS-mediated, AlphaScreen)
# Assay type: biochemical
# measurement-parameters: 5 min compound pre-incubation
reported-endpoint: Coupled exchange IC50 (5 min)

molecule	Coupled exchange IC50 (5 min)
C=CC(=O)N1CCN(c2nc(=O)n(-c3c(C)ccnc3C(C)C)c3nc(-c4c(O)ccc(F)c4F)c(F)cc23)[C@@H](C)C1 (atropisomer, axis not shown; (M)) [Example 72-8]	0.042 | nda μM
C=CC(=O)N1CCN(c2nc(=O)n(-c3c(C)cccc3C(C)C)c3nc(-c4cccc(F)c4O)c(Cl)cc23)[C@@H](C)C1 (single isomer, unassigned) [Example 64-3]	0.189 | nda μM
C=CC(=O)N1CCN(c2nc(=O)n(-c3c(C)cccc3C(C)C)c3cc(-c4c(O)cccc4F)c(Cl)cc23)[C@@H](C)C1 [Example 106]	0.074 | nda μM

Query string: Supply measured Coupled exchange IC50 (5 min) of C=CC(=O)N1CCN(c2nc(=O)n(-c3c(C)ccnc3C(C)C)c3nc(-c4ccccc4F)c(F)cc23)[C@@H](C)C1 (single isomer, unassigned) [Example 58-4-2] in your reply.
Result string: 4.82 | nda μM

* * *

# Coupled exchange IC50 (5 min) listing for each entry below
# system-under-test: GDP-bound KRAS protein (aa 1-169), containing both G12C and C118A amino acid substitutions (Homo sapiens, UniProt P01116, C118A/G12C)
# assay-explanation: Coupled nucleotide exchange assay (SOS-mediated, AlphaScreen)
# Assay type: biochemical
# measurement-parameters: 5 min compound pre-incubation

These recorded examples may help you get a feel for the data.
molecule	Coupled exchange IC50 (5 min)
C=CC(=O)N1CCN(c2nc(=O)n(-c3c(C)ccnc3CC)c3nc(-c4c(O)cccc4F)c(Cl)cc23)[C@@H](C)C1 (single isomer, unassigned) [Example 55-10-2]	0.266 | nda μM
C=CC(=O)N1CCN(c2nc(=O)n(-c3ccccc3C(C)C)c3nc(-c4cc(O)ccc4Cl)c(Cl)cc23)[C@@H](C)C1 (single isomer, unassigned) [Example 54-90-2]	0.633 | nda μM
C=CC(=O)N1[C@@H]2CCC[C@H]1CN(c1nc(=O)n(-c3c(C)ccnc3C(C)C)c3nc(-c4ccccc4F)c(Cl)cc13)C2 (single isomer, unassigned)	0.436 | nda μM
C=CC(=O)N1CCN(c2nc(=O)n(-c3cccnc3C(C)C)c3nc(-c4ccccc4F)c(Cl)cc23)[C@@H](C)C1 (single isomer, unassigned) [Example 54-9-1]	0.302 | nda μM
C=CC(=O)N1CCN(c2nc(=O)n(-c3c(CO)cccc3C(C)C)c3nc(-c4ccccc4F)c(Cl)cc23)[C@@H](C)C1 [Example 55-43]	0.073 | nda μM

Okay, now this molecule:
Query string: Give Coupled exchange IC50 (5 min) for the following molecule: `C=CC(=O)N1CCN(c2nc(=O)n(-c3ccccc3C(C)C)c3nc(-c4cc(N)ncc4Cl)c(Cl)cc23)[C@@H](C)C1`
Result string: 0.756 | nda μM
